The measurements presented in this section are drawn from ChEMBL document CHEMBL4014283.

- targetOfAssay: KDAC6 (protein deacetylase HDAC6) (Homo sapiens)
- Sequence (Q9UBN7 whole entry): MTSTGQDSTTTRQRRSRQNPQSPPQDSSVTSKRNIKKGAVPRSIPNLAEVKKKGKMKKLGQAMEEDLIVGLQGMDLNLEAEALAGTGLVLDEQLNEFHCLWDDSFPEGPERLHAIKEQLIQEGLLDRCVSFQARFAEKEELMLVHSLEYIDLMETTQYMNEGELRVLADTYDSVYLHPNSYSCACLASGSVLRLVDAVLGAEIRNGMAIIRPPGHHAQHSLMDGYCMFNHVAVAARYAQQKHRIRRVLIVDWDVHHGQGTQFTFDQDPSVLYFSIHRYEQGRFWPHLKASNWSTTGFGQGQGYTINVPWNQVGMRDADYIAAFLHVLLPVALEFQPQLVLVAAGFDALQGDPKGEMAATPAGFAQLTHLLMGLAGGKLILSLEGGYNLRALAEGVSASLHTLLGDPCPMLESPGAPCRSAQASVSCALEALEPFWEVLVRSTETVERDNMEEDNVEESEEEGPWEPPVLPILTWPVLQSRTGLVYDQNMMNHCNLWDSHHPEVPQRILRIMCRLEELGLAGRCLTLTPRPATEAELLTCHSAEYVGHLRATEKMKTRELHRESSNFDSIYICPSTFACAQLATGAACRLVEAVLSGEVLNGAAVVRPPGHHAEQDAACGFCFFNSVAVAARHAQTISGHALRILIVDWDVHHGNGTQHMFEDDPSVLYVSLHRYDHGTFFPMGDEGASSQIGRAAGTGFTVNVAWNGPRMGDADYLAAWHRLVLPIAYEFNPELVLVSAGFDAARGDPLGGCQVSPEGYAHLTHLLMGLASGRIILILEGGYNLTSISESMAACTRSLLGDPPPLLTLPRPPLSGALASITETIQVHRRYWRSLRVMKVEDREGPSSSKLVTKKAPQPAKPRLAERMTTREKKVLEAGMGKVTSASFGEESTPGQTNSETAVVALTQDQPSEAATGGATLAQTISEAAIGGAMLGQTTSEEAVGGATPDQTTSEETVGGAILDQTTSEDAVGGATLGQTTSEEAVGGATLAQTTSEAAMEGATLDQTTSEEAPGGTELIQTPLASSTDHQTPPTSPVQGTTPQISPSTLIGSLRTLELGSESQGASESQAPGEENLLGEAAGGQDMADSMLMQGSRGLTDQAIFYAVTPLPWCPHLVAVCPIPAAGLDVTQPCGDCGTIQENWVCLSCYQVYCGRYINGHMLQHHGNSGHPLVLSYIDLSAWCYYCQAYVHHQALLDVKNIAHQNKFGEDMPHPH
- assayText: Inhibition of human KDAC6 expressed in baculovirus expression system at 30 uM using FITC-Histone 4 acetylated peptide as substrate after 60 mins by microfluidic assay
- conditionSummary: probe FITC-Histone 4 acetylated peptide
The following compounds are listed with their measured inhibition at 1 h, 30 µM values.
measuredEndpoint: inhibition at 1 h, 30 µM

| compound | experimentalResult |
| --- | --- |
| Nc1cc(Cl)c(Cl)cc1S(=O)(=O)NO | 3.7% |
| O=[N+]([O-])c1c(N2CCN(CCO)CC2)nc2ccccn12 | 1% |
| FC(F)(F)c1cccc(OCC2CN=C(S)O2)c1 (stereo not given) | 3% |
| Nc1ccccc1SC1CC(=O)N(c2ccccc2Cl)C1=O (stereo not given) | 1% |
| COc1ccc([N+](=O)[O-])cc1NS(=O)(=O)c1ccc(C)cc1 | 7% |
| CSC1=NC=C(C#N)C2=NC(c3ccc(Cl)cc3)NN12 (stereo not given) | 3% |
| Cc1cc(OCCCCOc2ccc(C#N)cc2)ccc1[N+](=O)[O-] | 3% |
| CC1(C)[C@H]2CC[C@H](CNC(=N)CSS(=O)(=O)O)[C@@H]1C2 | 9% |
| CCOC(=O)Cc1cc(=O)[nH]n(-c2ccccc2)c1=O | 2% |
| COC(=O)CC1(C(=O)OC)Nc2cc(Cl)c(Cl)cc2S(=O)(=O)N1 (stereo not given) | 3% |
| CSc1nc(O)nnc1Sc1ccccc1 | 20% |
| O=C1CSC(=S)N1/N=C/c1c[nH]c2ccc(Br)cc12 | 18% |
| O=C1Nc2cc(Cl)c(Cl)cc2S(=O)(=O)N1O | 12.3% |
| O=C(O)Cc1ccc(/N=N/c2c(O)c(C(=O)O)cc3ccccc23)cc1 | 3% |
| CCOC(=O)CSc1nc2nc(Cl)c(Cl)[nH]c-2n1 | 21% |

---

- targetOfAssay: Histone deacetylase 8 (Schistosoma mansoni)
- Sequence (whole entry): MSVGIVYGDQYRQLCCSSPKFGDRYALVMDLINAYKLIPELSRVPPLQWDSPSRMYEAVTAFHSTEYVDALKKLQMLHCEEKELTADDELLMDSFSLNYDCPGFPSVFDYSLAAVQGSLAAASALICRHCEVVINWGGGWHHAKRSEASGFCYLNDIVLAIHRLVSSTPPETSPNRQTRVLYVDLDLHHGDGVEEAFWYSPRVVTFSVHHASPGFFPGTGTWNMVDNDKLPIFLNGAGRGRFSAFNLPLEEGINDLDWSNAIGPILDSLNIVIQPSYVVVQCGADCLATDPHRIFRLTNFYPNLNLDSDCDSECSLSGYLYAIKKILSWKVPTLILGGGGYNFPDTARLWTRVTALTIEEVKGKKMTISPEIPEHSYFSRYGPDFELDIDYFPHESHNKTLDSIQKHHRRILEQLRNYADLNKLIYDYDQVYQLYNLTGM
- assayText: Inhibition of Schistosoma mansoni KDAC8 at 30 uM using (FAM)-labeled peptide as substrate after 60 mins by microfluidic assay
The source made the active and inactive calls. The rule behind the calls is not given here.
measuredEndpoint: inhibition

| molecule | experimentalResult |
| --- | --- |
| CC(C)(C)OC(=O)NCCCC[C@@H]1N=C(c2ccccc2)c2ccccc2N(CCCCC(=O)NO)C1=O | 25.1% |
| CCOC(=O)c1cc2c(OC)c(OC)ccc2c2ncc(C#N)c(O)c12 | inactive |
| CC(C)[C@@H]1NC(=O)[C@H]2CCCN2C(=O)[C@@H]2CCCN2C(=O)C[C@@H](C(=O)NCCSSCCNC(=O)[C@@H]2CC(=O)N3CCC[C@H]3C(=O)N3CCC[C@@H]3C(=O)N[C@@H](C(C)C)C(=O)N2)NC1=O | 0% |
| O=C(O)CCCCN1C(=O)[C@H](CC(=O)NC(c2ccccc2)(c2ccccc2)c2ccccc2)N=C(c2ccccc2)c2ccccc21 | 0% |
| CC(C)(C)OC(=O)CC[C@H]1N=C(c2ccccc2)c2ccccc2NC1=O | 12.3% |
| CCOP(=O)(OCC)/C(C#N)=C/c1ccc([N+](=O)[O-])cc1 | 2% |
| CC(C)[C@@H]1NC(=O)[C@@H]2CCCN2C(=O)[C@H]2CCCN2C(=O)C[C@H](C(=O)NCCCO)NC1=O | 0% |
| COC(=O)CCCCN1C(=O)[C@H](CCC(=O)OC(C)(C)C)N=C(c2ccccc2)c2ccccc21 | 0% |
| CC(C)[C@@H]1NC(=O)[C@H]2CCCN2C(=O)[C@@H]2CCCN2C(=O)C[C@@H](C(=O)NCCCC(=O)O)NC1=O | 0% |
| O=C(CCCCN1C(=O)[C@H](Cc2cc3ccccc3[nH]2)N=C(c2ccccc2)c2ccccc21)NO | 19.7% |
| Cc1c(C)c(S(=O)(=O)NC(=N)NCCC[C@@H]2N=C(c3ccccc3)c3ccccc3NC2=O)c(C)c2c1OC(C)(C)C2 | 0% |
| O=C(O)CC[C@@H]1N=C(c2ccccc2)c2ccccc2NC1=O | 0% |
| Cc1cc(-n2cnc3c(O)ncnc32)ccc1N | 1% |
| NC(=O)c1ccccc1OCC(=O)Nc1ccc(Cl)c(Cl)c1 | 2% |
| CC(C)[C@@H]1NC(=O)[C@H]2CCCN2C(=O)[C@@H]2CCCN2C(=O)C[C@H](C(=O)NCCCS)NC1=O | 3.18% |
| Cc1c(C)c(S(=O)(=O)NC(=N)NCCC[C@@H]2N=C(c3ccccc3)c3ccccc3N(CCCCC(=O)NO)C2=O)c(C)c2c1OC(C)(C)C2 | 0% |
| CCOC(=O)c1[nH]c(C(=O)O)c(OC(=O)CC)c1C | inactive |
| O=C(CCCCN1C(=O)[C@H](Cc2ccccc2)N=C(c2ccccc2)c2ccccc21)NO | 14.4% |
| C[C@@H](O)[C@@H]1N=C(c2ccccc2)c2ccccc2N(CCCCC(=O)NO)C1=O | 0.91% |
| CC(C)(C)SC[C@H]1N=C(c2ccccc2)c2ccccc2N(CCCCC(=O)NO)C1=O | 18.5% |
| COC(=O)CCCNC(=O)[C@H]1CC(=O)N2CCC[C@H]2C(=O)N2CCC[C@@H]2C(=O)N[C@@H](C(C)C)C(=O)N1 | 1.47% |
| CCOC(=O)C1=C(N)N=C(N)C1=Nc1ccc(OC)cc1 | inactive |
| FC(F)(F)c1cccc(OCC2CN=C(S)O2)c1 (stereo not given) | 2% |
| COC(=O)CCCCN1C(=O)CN=C(c2ccccc2)c2ccccc21 | 0% |
| CC(C)[C@@H]1NC(=O)[C@H]2CCCN2C(=O)[C@@H]2CCCN2C(=O)C[C@@H](C(=O)OCc2ccccc2)NC1=O | 0% |
| CC[C@H](C)[C@@H]1N=C(c2ccccc2)c2ccccc2N(CCCCC(=O)O)C1=O | 0% |
| CC[C@H](C)[C@@H]1N=C(c2ccccc2)c2ccccc2N(CCCCC(=O)OC)C1=O | 0% |
| C[C@@H]1N=C(c2ccccc2)c2ccccc2NC1=O | 0% |
| CCOC(=O)Cc1cc(=O)[nH]n(-c2ccccc2)c1=O | 1% |
| COC(=O)CCCCN1C(=O)[C@H](CCCCNC(=O)OC(C)(C)C)N=C(c2ccccc2)c2ccccc21 | 0% |
| CCCCCCCC(=O)SCC/C=C/[C@@H]1CC(=O)NCc2nc(cs2)C2=N[C@@](C)(CS2)C(=O)N[C@@H](C(C)C)C(=O)O1 | 4% |
| O=C(CCCCN1C(=O)[C@H](CC(=O)NO)N=C(c2ccccc2)c2ccccc21)NO | 5.21% |
| O=C(O)C[C@H]1N=C(c2ccccc2)c2ccccc2NC1=O | 0% |
| O=C(CC[C@@H]1N=C(c2ccccc2)c2ccccc2NC1=O)NO | 25.9% |
| CC(C)[C@@H]1NC(=O)[C@H]2CCCN2C(=O)[C@@H]2CCCN2C(=O)C[C@@H](C(=O)NCCCSSCCCNC(=O)[C@@H]2CC(=O)N3CCC[C@H]3C(=O)N3CCC[C@@H]3C(=O)N[C@@H](C(C)C)C(=O)N2)NC1=O | 0% |
